Origin of values: the supplement of paper PMC8253809

Tested on: HGGX39 (paediatric high-grade glioma line)
Experiment: growth inhibition (% activity, log2 RLU normalised to DMSO / staurosporine); higher = more growth inhibition
Conditions: 33 µM

{"columns": ["compound", "study target", "growth inhibition (%)"],
 "data": [
  ["Cc1cccc(Nc2ccncc2S(=O)(=O)NC(=O)NC(C)C)c1", "HGGX39", 1.47],
  ["O=S(=O)(O)NC1CCCCC1", "HGGX39", 2.81],
  ["Nc1nc2c(ncn2COCCO)c(=O)[nH]1", "HGGX39", 1.26],
  ["Clc1ccc2c(c1)CCc1cccnc1C2=C1CCNCC1", "HGGX39", 0.308],
  ["CC(C)NCC(O)c1ccc(NS(C)(=O)=O)cc1 (configuration not stated)", "HGGX39", 0.329],
  ["C[C@H](N)[C@H](O)c1cccc(O)c1", "HGGX39", 5.08],
  ["Oc1c(Cl)cc(Cl)c2cccnc12", "HGGX39", 6.44],
  ["CN(C)C(=O)C(CCN1CCC(O)(c2ccc(Cl)cc2)CC1)(c1ccccc1)c1ccccc1", "HGGX39", 13.9],
  ["COc1cc(/C=C/C(=O)CC(=O)/C=C/c2ccc(O)c(OC)c2)ccc1O", "HGGX39", 0.698],
  ["OC(CCN1CCCCC1)(c1ccccc1)C1CC2C=CC1C2 (configuration not stated)", "HGGX39", -1.06],
  ["C[N+]1(C)CCC(=C(c2ccccc2)c2ccccc2)CC1", "HGGX39", 2.04],
  ["CC(=O)SCC(Cc1ccccc1)C(=O)NCC(=O)OCc1ccccc1 (configuration not stated)", "HGGX39", 1.49]
]}
